// provenance: PubChem BioAssay (NCI)

# TGI per entry
Test system: SW-620 colon
Experiment: NCI tumour cell line growth inhibition, 48 h

Worked set:
C[C@@H]1CC(=O)[C@@]2(C)[C@](O)(CCC3O[C@]32C)[C@@]12CC(c1ccoc1)OC2=O (stereo partly specified) :: > 100 µM
NC(=O)c1nnc2c(F)cccc2c1N :: > 100 µM
Cc1cc(=O)oc2c(CN(CCCl)CCCl)c(O)ccc12 :: > 100 µM
N#CSc1cc(-c2nc3ccccc3o2)ccc1N :: > 86.2 µM
O=C(O)CCC(NC(=O)/C(=C/c1ccccc1)NC(=O)c1ccccc1)C(=O)O (stereo unspecified) :: > 100 µM
COc1ccc(OC)c(/C=C/C(=O)c2ccc(SC)cc2)c1 :: > 100 µM
S=C1NC2=C(CCOc3c2ccc2ccccc32)C(c2ccc(Cl)cc2)N1 (stereo unspecified) :: > 100 µM
Cc1cccc2c1C(=O)OC2(c1cccc2ccccc12)c1cccc2ccccc12 :: > 100 µM
CCOC(=O)N1c2c(c3ccccc3n2C(=O)OCC)C(=O)C(OC)N1C(=O)OCC (stereo unspecified) :: > 100 µM
BrCC[N+]12CCCN1CCC2 :: 7.39 µM

# input for lookup
So what's the measured TGI for this one? CC(C)S(=O)(=O)ON1C(=O)c2ccc([N+](=O)[O-])cc2C1=O
> 100 µM

---

# TGI per entry
Test system: OVCAR-3 ovarian
Experiment: NCI tumour cell line growth inhibition, 48 h

CC(C)(C)C1=CC(O)(c2c3ccccc3c(C3(O)C=C(C(C)(C)C)C(=O)C(C(C)(C)C)=C3)c3ccccc23)C=C(C(C)(C)C)C1=O :: > 100 µM
COc1ccc(-c2nc3ncccn3c2-c2ccc(S(C)(=O)=O)cc2)cc1 :: > 100 µM
COc1cc(C2CC(c3cc(Cl)c(C)cc3O)=NN2c2ccc(S(N)(=O)=O)cc2)cc(OC)c1OC (centres undefined) :: 4.77 µM
N#CC(N)(C(=O)C(=O)NCCCNC(=O)C(=O)C(N)(C#N)c1ccc(Cl)cc1)c1ccc(Cl)cc1 (centres undefined) :: > 100 µM
COc1ccc(C(=O)C(CN(C)C)c2ccccc2)cc1 (centres undefined) :: 2.89 µM
Nc1nc(Cl)cc(NCC2CC(O)(CO)C2)n1 (centres undefined) :: > 100 µM

So what's the measured TGI for this one? CN(C)/C=C/C(=O)c1cccc(C(=O)/C=C/N(C)C)n1
> 100 µM

So what's the measured TGI for this one? Clc1ccc2c(NCCNc3nc(Cl)nc4ccccc34)ccnc2c1
2.68 µM

So what's the measured TGI for this one? C[C@@H]1CC(=O)[C@@]2(C)[C@](O)(CCC3O[C@]32C)[C@@]12CC(c1ccoc1)OC2=O (some centres undefined)
> 100 µM

---

# TGI per entry
Test system: A498 renal
Experiment: NCI tumour cell line growth inhibition, 48 h

S=C1NNC(=S)NN1 :: > 1 µM

# input for lookup
Which TGI is reported with A498 renal for this entry: Oc1cccc(-c2cn3cc(Cl)ccc3n2)c1 ?
> 100 µM

---

System: DMS 114 small cell lung
Select the matching outcome among label 1 (active), label 0 (inactive)

# count of solved cases: 3
CCCCCCCC(=O)O[C@H]1[C@H]2[C@@H](CC1(C)C)C(=O)[C@]13O[C@H]1C(=O)[C@]1(CO1)[C@]23C :: label 0
CC(=O)[O-].CC(=O)[O-].CC(=O)[O-].CC(=O)[O-].CO.CO.CO.[Rh+2].[Rh+2].c1ccc(-c2ccccn2)nc1 :: label 0
CCC[CH2][Sn]1([CH2]CCC)[O]N=Cc2ccccc2[O]1 :: label 1

Now consider a different molecule.
Returns: the outcome recorded for COc1cccc2c1C(=O)c1c(O)c3c(c(O)c1C2=O)C[C@@](O)(C(=O)CO)CC3OC1CC(NCCCCC(OC(C)=O)OC(C)=O)C(O)C(C)O1 (some centres undefined) in this assay.
label 1

---

Test system: OVCAR-5 ovarian
Assay: NCI tumour cell line growth inhibition, 48 h
# TGI per entry

CCN(CC)CCC1(C(=O)OC)SCCc2ccc(C)cc21 (configuration not stated) :: > 100 µM
COc1ccc(Nc2ccnc3cc(Cl)ccc23)cc1CN(CCCl)CCCl :: 5.94 µM
CN(C)CC1CCCCCCCCCCC1=O (configuration not stated) :: > 100 µM

Which TGI is reported with OVCAR-5 ovarian for this entry: CCOc1c(Cc2ccccc2)c(=O)n2c3ccccc3n3c(=O)n(C)c(=O)c1c23 ?
> 100 µM

Which TGI is reported with OVCAR-5 ovarian for this entry: N#Cc1c(NC(=S)Nc2ccccc2)sc2c1CCCC2 ?
> 100 µM

Which TGI is reported with OVCAR-5 ovarian for this entry: CC(=O)c1c2c(cc3c1CCC3)CCC2 ?
> 100 µM

Which TGI is reported with OVCAR-5 ovarian for this entry: CC(=O)[O-].CC(=O)[O-].CC(=O)[O-].CC(=O)[O-].CO.CO.CO.[Rh+2].[Rh+2].c1ccc(-c2ccccn2)nc1 ?
> 100 µM

Which TGI is reported with OVCAR-5 ovarian for this entry: COc1nc2ncc([C@@H](O)[C@H](O)CO)nc2c(=O)[nH]1 ?
> 100 µM

Which TGI is reported with OVCAR-5 ovarian for this entry: CCN(CC)Cc1cc(Nc2c3ccc(Cl)cc3nc3c(C)cccc23)ccc1O ?
4.86 µM

Which TGI is reported with OVCAR-5 ovarian for this entry: CC(C(=O)C(C)O[Si](c1ccccc1)(c1ccccc1)C(C)(C)C)=P(c1ccccc1)(c1ccccc1)c1ccccc1 (configuration not stated) ?
24.9 µM

Which TGI is reported with OVCAR-5 ovarian for this entry: CCOC(=O)CCN1C(=O)c2c(NC(=O)C(=O)O)cccc2S1(=O)=O ?
> 100 µM

Which TGI is reported with OVCAR-5 ovarian for this entry: O=[N+]([O-])C1(CO)COC2(OC1)c1ccccc1-c1ccccc12 ?
> 100 µM

Which TGI is reported with OVCAR-5 ovarian for this entry: C[C@@H]1CC(=O)[C@@]2(C)[C@](O)(CCC3O[C@]32C)[C@@]12CC(c1ccoc1)OC2=O (some centres not stated) ?
> 100 µM

Which TGI is reported with OVCAR-5 ovarian for this entry: O=C1CSC(c2cc3cc(Br)ccc3nc2Cl)N1c1ccc(F)c(Cl)c1 (configuration not stated) ?
> 50 µM

Which TGI is reported with OVCAR-5 ovarian for this entry: CC(C)(CO)Nc1c(O)c2c(c(O)c1Cl)C(=O)C=CC2=O ?
3.02 µM

---

Tested on: K-562 leukemia
Assay: NCI tumour cell line growth inhibition, 48 h
recorded metric: TGI

Worked set:
NC(=O)c1ccc(S(=O)(=NS(=O)(=O)c2ccccc2)c2ccc(C(N)=O)cc2)cc1 :: > 100 µM
O=C1NC(=Nc2ccccc2Cl)SC1C(=O)Nc1ccc([N+](=O)[O-])cc1[N+](=O)[O-] (stereo not given) :: > 100 µM
CC(=O)c1nc(C#N)c(N)o1 :: > 100 µM
Cc1cccc2c1C(=O)OC2(c1cccc2ccccc12)c1cccc2ccccc12 :: > 100 µM
O=C(Nc1ccc(I)cc1F)c1cc(F)ccc1O :: > 42.1 µM
O=C(O)CNCc1c2ccccc2nc2ccccc12 :: > 82.7 µM
CC[C@@]1(O)C(=O)N(CCN(C)C)Cc2c1cc1n(c2=O)Cc2cc3ccccc3nc2-1 :: > 100 µM
C=C(C)[C@@H]1CC[C@@H]2C(=CC[C@]3(C)C([C@H](C)CC/C=C(/C)C(=O)O)CC[C@@]23C)[C@@]1(C)CCC(=O)O (stereo not given in full) :: > 100 µM

So what's the measured TGI for this one? CCN(CC)CCn1nc2c3c(cccc3c1=O)-c1ccccc1-2
> 50 µM

So what's the measured TGI for this one? Cc1nc(=O)n2c(c1C(=O)Nc1ccc(Cl)cc1)NCCC2
> 100 µM

---

# TGI per entry
Tested on: UACC-257 melanoma
Assay: NCI tumour cell line growth inhibition, 48 h
The reply should be a number in µM, with the unit left off.

Worked set:
CCN(CC)CCn1nc2c3c(cccc3c1=O)-c1ccccc1-2 :: 10.7
Nc1ccc(Sc2ccc3c4c2cccc4c(=O)n2c4ccccc4nc32)cc1 :: 43.5
COc1ccc(C(=O)C(CN(C)C)c2ccccc2)cc1 (centres undefined) :: 10.7
O=C(c1nc2ccccc2[nH]1)C1C(c2cccc([N+](=O)[O-])c2)C2CC3CCCCC3N2[C@@]12C(=O)Nc1cc(Cl)ccc12 (some centres undefined) :: 6.09
c1ccc2c(c1)[C@@H]1O[C@@H]1[C@@]13O[C@@]21[C@H]1O[C@H]1c1ccccc13 :: 37.2

# input for lookup
So what's the measured TGI for this one? CC(=O)OC1CC2C(C)(C)C(=O)C=C[C@]2(C)C2CCC3(C)C(=CCC3[C@H](CO)C[C@H](O)C(=O)C(C)(C)O)[C@]12C (some centres undefined)
30.8
